assay: Quantitative High-Throughput drug screen in 47 multiple myeloma cell lines against the NCATS MIPE library collection: ARD_JJKsccE7 cell viability assay (AID 1918929;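 as to viability: 100% = DMSO-only wells and 0% = media-only wells without cells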); settings: ARD myeloma cell line viability, CellTiter-Glo, 48 h; series mostly up to 45.8 µM
Records with an inconclusive call do not appear. Calls of active or inactive are those of the source. Calls follow the shape of the dose curve; as a rule, active = well fitted cell-killing curve with a large enough effect; inconclusive = small, poorly fitted or top-dose-only effect, or effect the other way; inactive = no such curve, though single readings can be large or run the other way.
Classes used: 1 (yes) = active, 0 (no) = inactive

compound	classification
COc1ccc([C@@H]2CC(=O)c3c(O)cc(O[C@@H]4O[C@H](CO[C@@H]5O[C@@H](C)[C@H](O)[C@@H](O)[C@@H]5O)[C@@H](O)[C@H](O)[C@@H]4O)cc3O2)cc1O	0 (no)
O=C(Nc1cccnc1)N1CCC(Cc2cccc(Oc3ccc(C(F)(F)F)cn3)c2)CC1	1 (yes)
CCc1ccc(CCOc2ccc(CC3SC(=O)NC3=O)cc2)nc1 (stereo not given)	0 (no)
Cc1cc(-c2ccc(CC(=O)Nc3ccc(-c4cccnc4)cc3)cc2)ccn1	1 (yes)
N#Cc1ccc(C(c2ccc(C#N)cc2)n2cncn2)cc1	1 (yes)
NS(=O)(=O)c1cc2c(cc1Cl)NC=NS2(=O)=O	0 (no)
CCOc1cc(N2CCC(O)CC2)ccc1Nc1ncc2c(n1)N(C)c1ccccc1C(=O)N2C	1 (yes)
O=C(Nc1ccc(F)c(C(F)(F)F)c1)Nc1nnc(-c2ccncc2)s1	0 (no)
CCn1cc(C(=O)O)c(=O)c2cc(F)c(N3CCNC(C)C3)c(F)c21 (stereo not given)	0 (no)
Nc1nc2ccc(OC(F)(F)F)cc2s1	1 (yes)
CC[C@@H](C)[C@H](NC(=O)[C@H](CC1CCCCC1)NC(=O)c1ccno1)C(=O)N1CCC2(CCc3ccccc32)CC1	0 (no)
CC(C)C[C@H](NC(=O)[C@@H](O)[C@H](N)Cc1ccccc1)C(=O)O	0 (no)
CNCc1ccc(-c2[nH]c3cc(F)cc4c3c2CCNC4=O)cc1	1 (yes)
Cn1cnc2c(F)c(Nc3ccc(Br)cc3Cl)c(C(=O)NOCCO)cc21	1 (yes)
NC[C@H](O)c1ccc(O)c(O)c1	0 (no)
Cc1cc(SCc2sc(-c3ccc(C(F)(F)F)cc3)nc2C)ccc1OCC(=O)O	0 (no)
COc1nc(-c2ccc3c(c2)OCO3)n(-c2ccc(NC(=O)CSc3ccccc3)cc2)n1	0 (no)
CC1(C)SCCN(S(=O)(=O)c2ccc(OCC#CCO)cc2)[C@@H]1C(=O)NO	0 (no)
CC(C)(N)C(=O)N[C@H](COCc1ccccc1)C(=O)N1CCC2(CC1)CN(S(C)(=O)=O)c1ccccc12	0 (no)
COc1ccc(C2=N[C@H](c3ccc(Cl)cc3)[C@H](c3ccc(Cl)cc3)N2C(=O)N2CCNC(=O)C2)c(OC(C)C)c1	0 (no)

====

experiment: qHTS drug screen for cell cycle checkpoint inhibitors in PARPi-resistant BRCA-mutant ovarian cancer cell lines. (AID 1963452); settings: PEO1/OlaR viability, CellTiter-Glo luminescence, 96 h; hits give low values
endpoint name: Z-AUC

> print(dat)
                                   compound  quantitative.result
1  CCn1cc(C(=O)O)c(=O)c2cc(F)c(N3CCNC(C)C3)c(F)c21 (stereo unspecified)               -0.481
2  CC(C)OC(=O)C1=CN(C(=O)c2ccc(F)c(F)c2)CC(C)(C)c2c1[nH]c1ccccc21               -0.655
3  CCCCNc1cc(C(=O)O)cc(S(N)(=O)=O)c1Oc1ccccc1               -0.665
4  CCn1c(-c2nonc2N)nc2cnc(Oc3cccc(NC(=O)c4ccc(OCCN5CCOCC5)cc4)c3)cc21                0.926
5                     O=c1[nH]cnc2[nH]ncc12               -0.687
6  Cc1ccc(NC(=O)c2cccc(C(C)(C)C#N)c2)cc1Nc1ccc2ncn(C)c(=O)c2c1                0.851

Each recorded value in this set is attributed to PubChem BioAssay (NCATS).
